tested on: U2OS; assay: Multiplex assay against U2OS; format: toxicity, cell-based; conditions: human, 12 h, 10 µM, compound concentration 10 uM, replicate 1
PROPERTY_LABEL: Population Mitochondria Different-Phenotype (%)
Entry rule: numbers only, all in %.

COMPOUND | RESULT_UNIT | RECORDED_MEASUREMENT
CC1(COc2ccc3c(c2)ncn3-c2ccc3cccc(N4CCC(N)CC4)c3n2)COC1 [CRENOLANIB] | % | 80
CN(C)c1ccnc2sc3c(=O)n(N4CCCCCC4)cnc3c12 | % | 14

**Query** Request the reported Population Mitochondria Different-Phenotype (%) associated with Cc1ccc(F)cc1C(=O)Nc1ccc(C(=O)N2Cc3cccn3Cc3ccccc32)c(Cl)c1 [LIXIVAPTAN]
**Result** 42

**Query** Request the reported Population Mitochondria Different-Phenotype (%) associated with COc1c(C)cc(NC(=O)c2nn(Cc3ccc(F)cc3)c3c2CN(C(=O)c2ccc[nH]2)C[C@]3(C)C(N)=O)cc1C
**Result** 90

**Query** Request the reported Population Mitochondria Different-Phenotype (%) associated with CSc1ccccc1N1CCN(CCCCCC(=O)NC2CCCc3ccccc32)CC1.Cl (stereo not given)
**Result** 90
